Origin of measurements: patent US3974187A

# Tested on: succinoxidase system of beef heart mitochondria
# PROCEDURE_SUMMARY: CoQ activity: restoring succinoxidase activity of pentane-extracted beef heart mitochondria (manometric)
# Assay type: biochemical
# CONDITIONS: 400 nm of analog per flask; percent of the response to CoQ4

MOLECULE | SUBJECT_OF_TEST | Maximum Activation, %
CCCCCC1=C(C)C(=O)C(OC)=C(OC)C1=O [Pentyl] | succinoxidase system of beef heart mitochondria | 86
CCC=CCC=CCC=CCCCCCCCC1=C(C)C(=O)C(OC)=C(OC)C1=O [8', 11', 14'-Heptadecatrienyl] | succinoxidase system of beef heart mitochondria | 96
CCC=CCC=CCC=CCCCCCCCCCC1=C(C)C(=O)C(OC)=C(OC)C1=O [10', 13', 16'-Nonadecatrienyl] | succinoxidase system of beef heart mitochondria | 100
COC1=C(OC)C(=O)C(C/C=C(\C)CCCC(C)CCCC(C)CCCC(C)C)=C(C)C1=O (stereo not shown) [H6 CoQ4, hexahydrocoenzyme Q4, reference compound] | succinoxidase system of beef heart mitochondria | 95
COC1=C(OC)C(=O)C(C/C=C(\C)CC/C=C(\C)CC/C=C(\C)CC/C=C(\C)CC/C=C(\C)CC/C=C(\C)CCC=C(C)C)=C(C)C1=O [CoQ7, reference compound] | succinoxidase system of beef heart mitochondria | 90
COC1=C(OC)C(=O)C(C/C=C(\C)CC/C=C(\C)CC/C=C(\C)CCC=C(C)C)=C(C)C1=O [CoQ4, reference compound] | succinoxidase system of beef heart mitochondria | 100
COC1=C(OC)C(=O)C(C/C=C(\C)CC/C=C(\C)CC/C=C(\C)CC/C=C(\C)CC/C=C(\C)CC/C=C(\C)CC/C=C(\C)CC/C=C(\C)CC/C=C(\C)CCC=C(C)C)=C(C)C1=O [CoQ10, coenzyme Q10, reference compound] | succinoxidase system of beef heart mitochondria | 78
CCCCCCCCC=CCCCCCCCC1=C(C)C(=O)C(OC)=C(OC)C1=O [8'-Heptadecenyl] | succinoxidase system of beef heart mitochondria | 94
CCCCCCC=CCCCCCCCC1=C(C)C(=O)C(OC)=C(OC)C1=O [8'-Pentadecenyl] | succinoxidase system of beef heart mitochondria | 93
CCCCCCCCC=CCCCCCCCCCC1=C(C)C(=O)C(OC)=C(OC)C1=O [10'-Nonadecenyl] | succinoxidase system of beef heart mitochondria | 96
CCCCCC=CCC=CCCCCCCCCCC1=C(C)C(=O)C(OC)=C(OC)C1=O [10', 13'-Nonadecadienyl] | succinoxidase system of beef heart mitochondria | 96
CCCCCCCCCCCCCCCC1=C(C)C(=O)C(OC)=C(OC)C1=O [Pentadecyl] | succinoxidase system of beef heart mitochondria | 94
CCCCCCCCCCCCCCCCCCCCC1=C(C)C(=O)C(OC)=C(OC)C1=O [Eicosyl] | succinoxidase system of beef heart mitochondria | 62
CCCCCCCCCCC1=C(C)C(=O)C(OC)=C(OC)C1=O [Decyl] | succinoxidase system of beef heart mitochondria | 96
CCCCCC=CCC=CCC=CCC=CCCCC1=C(C)C(=O)C(OC)=C(OC)C1=O [4', 7', 10', 13'-Nonadecatetraenyl] | succinoxidase system of beef heart mitochondria | 92
CCCCCC=CCC=CCCCCCCCC1=C(C)C(=O)C(OC)=C(OC)C1=O [8', 11'-Heptadecadienyl] | succinoxidase system of beef heart mitochondria | 95
